Documented remaining activity at 0.00256 µM across a set of compounds
Biological target: bovine carbonic anhydrase II (CAII) (Bos taurus)
Construct: purchased Sigma-Aldrich C7749
Sequence (P00921 whole entry): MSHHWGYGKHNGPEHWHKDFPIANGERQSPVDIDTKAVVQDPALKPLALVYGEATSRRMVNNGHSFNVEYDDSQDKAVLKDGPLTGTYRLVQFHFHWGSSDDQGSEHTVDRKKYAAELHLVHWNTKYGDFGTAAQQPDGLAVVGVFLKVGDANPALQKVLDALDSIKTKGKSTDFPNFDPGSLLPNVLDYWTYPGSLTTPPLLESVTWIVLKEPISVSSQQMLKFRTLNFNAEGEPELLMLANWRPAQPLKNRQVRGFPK
Experiment: Carbonic anhydrase II inhibition assay (esterase activity on p-nitrophenyl acetate)
Format: biochemical
Conditions: 2.56 nM compound; source data of Fig. 2c; read-out: Normalized CA II Activity (Mean)

>  <compound>
NS(=O)(=O)c1ccc(NC(=O)COc2ccccc2OCC(=O)NCCNC(=O)/C=C/c2ccc(-c3ccccc3C(F)(F)F)o2)cc1 [Compound C-2]

>  <value-units>
%

>  <remaining activity at 0.00256 µM>
96.1

$$$$
>  <compound>
NS(=O)(=O)c1ccc(NC(=O)COCC(=O)NCCNC(=O)/C=C/c2ccc(-c3ccccc3C(F)(F)F)o2)cc1 [Compound C-5]

>  <value-units>
%

>  <remaining activity at 0.00256 µM>
96.7

$$$$
>  <compound>
NS(=O)(=O)c1ccc(NC(=O)/C=C/c2ccc(-c3ccccc3C(F)(F)F)o2)cc1 [Compound C-0]

>  <value-units>
%

>  <remaining activity at 0.00256 µM>
93.6

$$$$
>  <compound>
NS(=O)(=O)c1ccc(NCc2ccc(C(=O)NCCNC(=O)/C=C/c3ccc(-c4ccccc4C(F)(F)F)o3)cc2)cc1 [Compound C-1]

>  <value-units>
%

>  <remaining activity at 0.00256 µM>
90.4

$$$$
>  <compound>
NS(=O)(=O)c1ccc(NC(=O)c2ccc(-n3cc(CCC(=O)NCCNC(=O)/C=C/c4ccc(-c5ccccc5C(F)(F)F)o4)nn3)cc2)cc1 [Compound C-4]

>  <value-units>
%

>  <remaining activity at 0.00256 µM>
89.3

$$$$

---

Target: MMP-9 (Homo sapiens, UniProt P14780)
Construct: purchased Sino Biological 10327-HNAH
Sequence (P14780 107-707 limits assumed): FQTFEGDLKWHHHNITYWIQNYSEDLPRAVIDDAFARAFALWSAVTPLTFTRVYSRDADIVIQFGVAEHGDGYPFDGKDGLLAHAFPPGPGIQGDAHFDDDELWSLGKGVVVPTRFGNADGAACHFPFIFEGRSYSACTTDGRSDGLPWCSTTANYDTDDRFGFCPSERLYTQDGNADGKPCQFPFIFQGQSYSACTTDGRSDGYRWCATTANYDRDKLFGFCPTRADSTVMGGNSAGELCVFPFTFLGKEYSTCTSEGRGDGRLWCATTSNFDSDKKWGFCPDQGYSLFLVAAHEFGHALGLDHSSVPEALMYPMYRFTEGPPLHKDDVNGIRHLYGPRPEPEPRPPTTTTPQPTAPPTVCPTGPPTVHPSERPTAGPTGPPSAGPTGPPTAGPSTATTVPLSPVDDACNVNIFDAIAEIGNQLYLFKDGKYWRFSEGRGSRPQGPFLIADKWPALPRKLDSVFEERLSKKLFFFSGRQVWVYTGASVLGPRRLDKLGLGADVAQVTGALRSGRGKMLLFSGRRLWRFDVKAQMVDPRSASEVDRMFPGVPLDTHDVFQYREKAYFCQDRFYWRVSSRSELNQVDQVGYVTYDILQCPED
Assay: MMP-9 inhibition assay (fluorogenic peptide substrate)
Format: biochemical
Parameters: scale not given here
Details: MMP-9; concentration 0.49 µM
quantity-name: remaining enzyme activity (% of control)

>  <smiles-representation>
Cc1cc(=O)[nH]c(-n2nc(C)c(CCC(=O)NCCCCCCCCNC(=O)c3cnc4c(c3)nc(O)n4C)c2C)n1

>  <target-of-assay>
MMP-9 (Homo sapiens, UniProt P14780)

>  <reported-measurement>
99.68

$$$$
>  <smiles-representation>
Cn1c(O)nc2cc(C(=O)NCCCC/C=C/C(=O)CC(=O)NCC34CC5CC(CC(C5)C3)C4)cnc21

>  <target-of-assay>
MMP-9 (Homo sapiens, UniProt P14780)

>  <reported-measurement>
81.81

$$$$
>  <smiles-representation>
Cc1cc(=O)[nH]c(-n2nc(C)c(CCC(=O)NCCSCC(=O)NCCNC(=O)c3cnc4c(c3)nc(O)n4C)c2C)n1

>  <target-of-assay>
MMP-9 (Homo sapiens, UniProt P14780)

>  <reported-measurement>
96.54

$$$$

---

Biological target: MMP-9 (Homo sapiens, UniProt P14780)
Construct: purchased Sino Biological 10327-HNAH
Test: MMP-9 inhibition assay (fluorogenic peptide substrate)
Format: biochemical
Conditions: mean ± SE; n.d: not detected; Fig. 5e prints no unit, µM; read-out: IC50
Labelling field: enter Satisfied if recorded IC50 is less than 200 µM. Enter Not satisfied if it equals or exceeds that cut-off.

>  <compound>
O=C(CSCCNC(=O)c1cncc(O)c1)NCC12CC3CC(CC(C3)C1)C2 [66+828 Linker 24]

>  <category-label>
Not satisfied

$$$$
>  <compound>
Cc1cc(=O)[nH]c(-n2nc(C)c(CCC(=O)NCCSCC(=O)NCCNC(=O)c3cnc4c(c3)nc(O)n4C)c2C)n1 [693+826 Linker 24]

>  <category-label>
Not satisfied

$$$$
>  <compound>
Cc1cc(=O)[nH]c(-n2nc(C)c(CCC(=O)NCCOCCOCCNC(=O)CCC(=O)NCc3c[nH]nn3)c2C)n1 [693+787 Linker 10]

>  <category-label>
Not satisfied

$$$$
>  <compound>
O=C(CSCCNC(=O)Cn1cnc2c(oc3ccccc32)c1=O)NCc1c[nH]nn1 [182+787 Linker 24]

>  <category-label>
Satisfied

$$$$
>  <compound>
O=C(O)Cn1cnc2c(oc3ccccc32)c1=O [Compound 182]

>  <category-label>
Satisfied

$$$$
>  <compound>
Cc1cc(=O)[nH]c(-n2nc(C)c(CCC(=O)NCCNC(=O)CSCCNC(=O)c3cncc(O)c3)c2C)n1 [693+828 Linker 24]

>  <category-label>
Satisfied

$$$$
>  <compound>
NCc1c[nH]nn1 [Compound 787]

>  <category-label>
Not satisfied

$$$$

meta.source: paper PMC10023787
